- TGT: Carbonic anhydrase 2 (Homo sapiens) (UniProt P00918)
- EXPERIMENT_DESCRIPTION: CAII small-molecule binders, profiling panel, biochemical, small-molecule microarray, Alexa647-labelled CAII (AID 1122)
- TEST_SETTINGS: CAII-A647 binding fluorescence, higher = more signal
Decision: composite z-score compared against 0.4; not below it gives criterion met, below it gives criterion not met.

Exercise: # bool: composite z-score of C[C@H]1CC[C@@H](C(=O)O)N[C@@H]1c1cccc(N2CCCC2=O)c1 >= 0.4
Solution: criterion not met

Exercise: Evaluate C[C@H]1CC[C@@H](C(=O)O)N[C@@H]1c1ccc(C#Cc2ccccc2)cc1 : composite z-score at minimum 0.4?
Solution: criterion met

Exercise: Threshold query (composite z-score >= 0.4) on O=C1[C@H]2CCn3c(=O)n(Cc4cc5c(cc4Cl)OCO5)c(=O)n3[C@H]2[C@H](O)[C@@H]2O[C@H]12
Solution: criterion not met

Exercise: Given COC(=O)[C@H](C)NC(=O)CC=C[C@@H](C)[C@@H]1C=C[C@H](O)[C@@H](CO)O1 , state whether its composite z-score is at least 0.4.
Solution: criterion not met

Exercise: Check if composite z-score >= 0.4 (inclusive). Item: CC(=O)OC[C@H]1O[C@H](C#CCCc2ccccc2)C=C[C@@H]1OC(C)=O
Solution: criterion not met
